Data provenance: PubChem BioAssay (NCI)

- Test system: HCT-15 colon
- test-protocol: NCI tumour cell line growth inhibition, 48 h
measured-parameter: TGI

| compound | TGI |
| --- | --- |
| Nc1n[nH]c(=O)[nH]1 | > 100 µM |
| CC(C)(C)OC(=O)NC(C)(C)C(=O)NCCC(=O)O | > 100 µM |
| Cc1cn(C2CC(N)C(CN)O2)c(=O)[nH]c1=O (stereo unspecified) | > 100 µM |

Tell me measured TGI for O=C1CCCN(c2ccccc2)N1 please.
> 100 µM

Tell me measured TGI for CNC(=O)c1ccccc1CC1(O)c2ccccc2Oc2ccccc21 please.
> 100 µM

Tell me measured TGI for O=C(Nc1nc2ccccc2s1)OCC(F)(F)F please.
> 100 µM

Tell me measured TGI for COC1(C(=O)N2Cc3nc(Cl)nc(N[C@H](C)c4cc(N)cc(C(F)(F)F)c4)c3C2)CCOCC1 please.
> 76.3 µM

Tell me measured TGI for C1COCCN1.C1COCCN1.N.N.[Cl-].[Pt+2] please.
> 100 µM

Tell me measured TGI for COC(=O)C1OC(O[C@H]2CCC3(C)C(CCC4(C)C3CC=C3C5CC(C)(C)CCC5(C(=O)O)CC[C@]34C)C2(C)C)C(O)C(OC2OC(CO)C(O)C(O)C2O)C1O (stereo partly specified) please.
13.2 µM

Tell me measured TGI for Cc1cc([C@@H](C)Nc2ccccc2C(=O)O)c2nc(N3CCOCC3)cc(=O)n2c1 please.
> 10 µM

Tell me measured TGI for O=C(/C=C/c1ccc(Cl)cc1)c1ccc(Cl)cc1Cl please.
15.3 µM
